Numbers sourced from ChEMBL document CHEMBL4130627.

Tested on: Influenza B virus
test_details: microbe, parasite or virus in culture
experimental_parameters: Ned/537/05, MDCK, 72 h
pEC50: −log10 of the molar value.
Tag: label 1 if measured pEC50 is not below 6, label 0 if it is.

# compound, classification
measured = [
    ("CCCCCCCCCCCCCCC(=O)Oc1ccc(COP(=O)(OCc2ccc(OC(=O)CCCC)cc2)OP(=O)(O)OC[C@H]2O[C@@H](n3ccnc(C(N)=O)c3=O)[C@H](O)[C@@H]2O)cc1.CCN(CC)CC (stereo partly drawn)", "label 1"),
    ("CC(=O)O[C@@H]1[C@H](OC(C)=O)[C@@H](COP2(=O)OCc3cccc(C)c3O2)O[C@H]1n1ccnc(C(N)=O)c1=O (stereo partly drawn)", "label 0"),
    ("CCCCCCCCCC(=O)Oc1ccc(COP(=O)(OCc2ccc(OC(=O)CCCCCCCCC)cc2)OP(=O)(O)OC[C@H]2O[C@@H](n3ccnc(C(N)=O)c3=O)[C@H](O)[C@@H]2O)cc1.CCN(CC)CC", "label 1"),
    ("NC(=O)c1nc(F)cnc1O", "label 0"),
    ("NC(=O)c1nccnc1O", "label 0"),
    ("CCCCCCCCCCCCCCC(=O)Oc1ccc(COP(=O)(OCc2ccc(OC(=O)CCCC)cc2)OP(=O)(O)OC[C@H]2O[C@@H](n3cc(F)nc(C(N)=O)c3=O)[C@H](O)[C@@H]2O)cc1.CCN(CC)CC (stereo partly drawn)", "label 0"),
    ("NC(=O)c1nccn([C@@H]2O[C@H](CO)[C@@H](O)[C@H]2O)c1=O", "label 0"),
    ("NC(=O)c1nc(Br)cn([C@@H]2O[C@H](CO)[C@@H](O)[C@H]2O)c1=O", "label 0"),
    ("Cc1cccc2c1OP(=O)(OC[C@H]1O[C@@H](n3ccnc(C(N)=O)c3=O)[C@H](O)[C@@H]1O)OC2 (stereo partly drawn)", "label 0"),
    ("NC(=O)c1nc(Br)cnc1O", "label 0"),
]

====

Tested on: Influenza B virus
test_details: microbe, parasite or virus in culture
experimental_parameters: Ned/537/05, MDCK, 72 h
pEC50: −log10 of the molar value.

# molecule, pEC50
records = [
    ("CCCCCCCCCC(=O)Oc1ccc(COP(=O)(OCc2ccc(OC(=O)CCCCCCCCC)cc2)OP(=O)(O)OP(=O)(O)OC[C@H]2O[C@@H](n3ccnc(C(N)=O)c3=O)[C@H](O)[C@@H]2O)cc1.CCN(CC)CC.CCN(CC)CC", 6.00),
    ("CCCCCCCCCCCCCCC(=O)Oc1ccc(COP(=O)(OCc2ccc(OC(=O)CCCC)cc2)OP(=O)(O)OP(=O)(O)OC[C@H]2O[C@@H](n3ccnc(C(N)=O)c3=O)[C@H](O)[C@@H]2O)cc1.CCN(CC)CC.CCN(CC)CC (stereo partly drawn)", 5.82),
    ("NC(=O)c1ncn([C@@H]2O[C@H](CO)[C@@H](O)[C@H]2O)n1", 5.82),
]
